Reported Kd by item:
- STUDY TARGET: T1, human GPC3 (human, UniProt P51654 25-563)
- T1 construct: range 25-563; soluble analyte; also called soluble human GPC3; glypican 3
- T1 sequence (P51654 25-563 limits assumed): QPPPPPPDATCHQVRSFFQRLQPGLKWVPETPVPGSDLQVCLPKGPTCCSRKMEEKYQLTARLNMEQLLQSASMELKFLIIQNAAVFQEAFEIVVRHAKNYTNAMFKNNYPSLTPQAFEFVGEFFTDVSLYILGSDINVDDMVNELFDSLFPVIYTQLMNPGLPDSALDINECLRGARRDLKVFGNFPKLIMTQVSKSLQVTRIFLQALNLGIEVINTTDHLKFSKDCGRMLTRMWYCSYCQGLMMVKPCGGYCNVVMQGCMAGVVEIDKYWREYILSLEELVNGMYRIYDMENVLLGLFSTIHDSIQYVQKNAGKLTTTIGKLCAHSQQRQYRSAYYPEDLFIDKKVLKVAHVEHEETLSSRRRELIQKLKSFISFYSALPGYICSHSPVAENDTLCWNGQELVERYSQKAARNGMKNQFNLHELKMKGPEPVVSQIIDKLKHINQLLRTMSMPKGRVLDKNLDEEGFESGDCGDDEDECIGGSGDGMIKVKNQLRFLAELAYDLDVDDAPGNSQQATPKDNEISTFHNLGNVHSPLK
- METHOD DESCRIPTION: SPR
REPORTED ENDPOINT: Kd (nM)

• GCH098-G1dh/none-Hi-Kn010G3/L0201-k0 (antibody, V domains shown, one-arm) VH: QVQLVQSGAEVKKPGASVTVSCKASGYTFTDYEMHWVRQAPGEGLEWMGAIDGPTPDTAYSEKFKGRVTLTADKSTSTAYMELSSLTSEDTAVYYCTRFYSYTYWGQGTLVTVSS VL: DIVMTQSPLSLPVTPGEPASISCRSSQPPVHSNRNTYLHWYQQKPGQAPRLLIYKVSNRFSGVPDRFSGSGSGTDFTLKISRVEAEDVGVYYCGQGTQVPYTFGQGTKLEIKR = 0.111
• H0610-G1dh/none-Hi-Kn010G3/TR01L010-k0 (antibody, V domains shown, one-arm) VH: QVQLVQSGAEVKKPGASVKVSCKASGYTFTDYEMHWIRQPPGQGLEWIGAIDGKTPDTAYSQKFKGRVTLTADKSTSTAYMELSSLTSEDTAVYYCTRFYSYTYWGQGTLVTVSS VL: DIVMTQSPLSLPVTPGEPASISCRSSQSLVHSNRNTYLHWYQQKPGQAPRLLIYKVSNRFRGVPDRFSGSGSGTDFTLKISRVEAEDVGVYYCGQGTQVPYTFGQGTKVEIE = 2.92
• H0610-G1dh/none-Hi-Kn010G3/L0215-k0 (antibody, V domains shown, one-arm) VH: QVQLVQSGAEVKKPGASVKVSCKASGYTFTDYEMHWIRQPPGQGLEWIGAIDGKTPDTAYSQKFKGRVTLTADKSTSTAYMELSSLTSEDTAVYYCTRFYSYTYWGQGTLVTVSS VL: DIVMTQSPLSLPVTPGEPASISCRSSQPPVHSNRNTYIHWYQQKPGQAPRLLIYKVSNRFSGVPDRFSGSGSGTDFTLKISRVEAEDVGVYYCGQGTQVPYTFGQGTKLEIK = 1.64
